- assay: chemical genetic growth profiling, strain panel (AID 1159580);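 further: tested at 20 µM; growth read once vehicle control cultures reached saturation at 30 °C; 1 = growth at the plate median or of vehicle wells; lower values mean less growth of the strain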
- measurementSetup: S. cerevisiae deletion strains, growth OD, locus YDL017W, strain CDC7, stronger effect = lower value
Among all 5,500 compounds or so, about 2,000 (36%) were called active. Not shown: some 18% with an inconclusive outcome. The list shows a part of the results.
property: normalized growth
I only need the number, thanks.

Check out these entries, answers already filled in.
[[record]]
compound = "CCOC(=O)CCc1cc(N=Cc2cc(Br)ccc2O)c(O)c(N=Cc2cc(Br)ccc2O)c1"
testresult = 0.962

[[record]]
compound = "N#CC1=C(N)C(C#N)(C#N)C2(CCCCC2)C2CCCC=C12 (stereo not given)"
testresult = 0.98


IN: May I ask what normalized growth has been recorded for `O=S(=O)(Nc1cc(C(F)(F)F)ccc1F)c1cc(C(F)(F)F)ccc1Cl` ?
OUT: 0.944

IN: Dear colleague, I am looking for the recorded normalized growth of the following compound: `Cc1nc(C(F)(F)F)c(C(=O)O/N=C(/N)c2ccc(Cl)cc2)s1`
OUT: 0.988

IN: // normalized growth lookup, key: COc1ccccc1C(C[N+](=O)[O-])c1c(N)n(C)c(=O)n(C)c1=O (stereo not given)
OUT: 0.958
